target: mA2a/CHO (Mus musculus (Mouse))
Sequence (Q60613 whole entry): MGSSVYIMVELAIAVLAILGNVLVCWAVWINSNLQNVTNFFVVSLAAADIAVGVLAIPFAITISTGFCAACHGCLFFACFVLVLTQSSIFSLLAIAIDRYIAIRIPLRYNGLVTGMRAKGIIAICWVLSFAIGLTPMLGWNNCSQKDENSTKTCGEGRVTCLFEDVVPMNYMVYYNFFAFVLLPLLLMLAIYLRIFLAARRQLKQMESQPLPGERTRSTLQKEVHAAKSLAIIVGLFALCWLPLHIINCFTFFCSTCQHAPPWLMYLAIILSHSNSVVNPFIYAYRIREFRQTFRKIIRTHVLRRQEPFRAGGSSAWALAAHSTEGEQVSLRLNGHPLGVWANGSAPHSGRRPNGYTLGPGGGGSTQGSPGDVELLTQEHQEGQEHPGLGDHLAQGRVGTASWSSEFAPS
run description: cAMP inhibition assay in mA2a/CHO cells, 10 μM adenosine;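 further: compounds preincubated 30 min at 37 °C before the adenosine challenge, then 30 min further stimulation, readout after 60 min detection reagent incubation at room temperature in 384-well plates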
Assay type: cell-based
measurement parameters: read-out: cAMP & FLIPR IC50 (nM) mA2a
parameter: IC50
Phrase the answer as number then unit, nothing more needed.

Check out these entries, answers already filled in.
compound	IC50
Cc1cnc2ccc(-c3nc(C(=O)NCCN4CCCC4=O)c(N)nc3-c3ncco3)cn12 [Example 208]	19 nM
Cc1cnc2ccc(-c3nc(C(=O)NCCC(=O)N(C)C)c(N)nc3-c3ncco3)cn12 [Example 143]	12 nM
Cn1cc(-c2nc(CNC(=O)c3ncccc3OC(F)F)c(N)nc2-c2ccc(F)cc2)ccc1=O [Example 21]	73 nM
Cn1cc(-c2nc(C(=O)NCc3ncccc3OC(F)F)c(N)nc2-c2ccc(F)cc2)ccc1=O [Example 58]	81 nM
Nc1nc(-c2ncco2)c(-c2ccc3nccn3c2)nc1C(=O)NCc1c(F)cccc1F [Example 32]	2 nM
Cc1cc(-c2nc(C(=O)NCc3cccc(N(C)C)n3)c(N)nc2-c2ccc(F)cc2)ccn1 [Example 12]	678 nM
CN(C)c1cccc(CNC(=O)c2nc(-c3ccc(=O)n(C)c3)c(-c3ncco3)nc2N)c1F [Example 33]	123 nM
Cc1cnc2ccc(-c3nc(C(=O)NCC4CCO4)c(N)nc3-c3ncco3)cn12 (single isomer, unassigned) [Example 135]	23 nM

Sample Nc1nc(-c2ncco2)c(-c2ccc(=O)n(C3CC3)c2)nc1C(=O)NCc1c(F)cccc1F [Example 38] — what was its IC50? 5.3 nM

Sample CNC(=O)CCNC(=O)c1nc(-c2ccc3ncc(C)n3c2)c(-c2ncco2)nc1N [Example 225] — what was its IC50? 177 nM

---

target: hA2a/CHO (Homo sapiens (Human), UniProt P29274)
Sequence (P29274 whole entry): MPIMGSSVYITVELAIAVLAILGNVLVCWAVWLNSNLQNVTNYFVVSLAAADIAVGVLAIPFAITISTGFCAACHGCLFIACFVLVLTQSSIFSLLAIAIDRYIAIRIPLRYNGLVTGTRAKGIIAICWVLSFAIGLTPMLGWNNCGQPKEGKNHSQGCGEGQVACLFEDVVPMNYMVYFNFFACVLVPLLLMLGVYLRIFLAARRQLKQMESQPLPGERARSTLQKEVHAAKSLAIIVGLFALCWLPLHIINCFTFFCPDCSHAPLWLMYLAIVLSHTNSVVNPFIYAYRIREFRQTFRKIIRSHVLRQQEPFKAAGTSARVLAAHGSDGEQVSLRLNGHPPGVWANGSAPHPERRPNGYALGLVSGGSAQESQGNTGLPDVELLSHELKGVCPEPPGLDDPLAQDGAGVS
run description: cAMP inhibition assay in hA2a/CHO cells, 10 μM adenosine;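 further: compounds added to cells 30 min ahead of adenosine, then a further 30 min at 37 °C with adenosine before cAMP detection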
Assay type: cell-based
measurement parameters: read-out: cAMP & FLIPR IC50 (nM) hA2a
parameter: log10 of IC50 (log10 of the value in nM)
Form field - Quantity: IC50; Unit: nM; Scale: log10

Check out these entries, answers already filled in.
compound	log10 of IC50
Nc1nc(-c2ncco2)c(-c2ccc3nccn3c2)nc1C(=O)NCc1cscn1 [Example 45]	1.97
Cn1cc(-c2nc(C(=O)NCc3c(F)cccc3Cl)c(N)nc2-c2ncco2)ccc1=O [Example 110]	-0.15
Nc1nc(-c2ncco2)c(-c2ccc3ncnn3c2)nc1C(=O)NCc1ncccc1F [Example 100]	1.88

Sample Cc1scnc1CNC(=O)c1nc(-c2ccc3nccn3c2)c(-c2ncco2)nc1N [Example 94] — what was its log10 of IC50? 0.59

Sample Cc1cnc2ccc(-c3nc(C(=O)NC[C@H]4CCCN4C)c(N)nc3-c3ccccc3)cn12 [Cmpd. 259] — what was its log10 of IC50? 0.57

Sample Cc1cnc2ccc(-c3nc(C(=O)NC[C@H]4CC(C)(C)CN4C)c(N)nc3-c3ncco3)cn12 (single isomer, unassigned; isomer 2) [Example 230] — what was its log10 of IC50? 1.18

Sample Cc1cnc2ccc(-c3nc(C(=O)N[C@H]4CCN(C)C4)c(N)nc3-c3ccc(F)cc3)cn12 [Example 200-2] — what was its log10 of IC50? 1.08

Sample Cc1cc(-c2nc(C(=O)NCc3c(F)cccc3OC(F)F)c(N)nc2-c2ccc(F)cc2)cc(C)n1 [Example 85] — what was its log10 of IC50? 0.40
